B1: TPR t1 (parent)
chain: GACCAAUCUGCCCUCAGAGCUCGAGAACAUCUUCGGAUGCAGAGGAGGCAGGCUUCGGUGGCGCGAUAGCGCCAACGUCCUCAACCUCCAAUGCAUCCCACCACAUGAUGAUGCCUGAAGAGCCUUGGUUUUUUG

Variants of: B1
Test: polymerase ribozyme fitness, log enrichment relative to wild type (log ratio); higher = more active; in vitro selection for triplet polymerase activity
resultType: polymerase ribozyme fitness (log ratio)

mutationdescriptor="A41G C53A C64A A121G" resulttype="polymerase ribozyme fitness (log ratio)" reportedvalue=-4.97
mutationdescriptor="C20U U54A C73G U133A" resulttype="polymerase ribozyme fitness (log ratio)" reportedvalue=-1.99
mutationdescriptor="A91C U125A" resulttype="polymerase ribozyme fitness (log ratio)" reportedvalue=-2.71
mutationdescriptor="C82G C86A A121U" resulttype="polymerase ribozyme fitness (log ratio)" reportedvalue=1.39
mutationdescriptor="C72A G120A" resulttype="polymerase ribozyme fitness (log ratio)" reportedvalue=1.06
mutationdescriptor="G52U C72U C80U C98U" resulttype="polymerase ribozyme fitness (log ratio)" reportedvalue=-3.28
mutationdescriptor="A29G C124A" resulttype="polymerase ribozyme fitness (log ratio)" reportedvalue=0.584
mutationdescriptor="U21C A37U" resulttype="polymerase ribozyme fitness (log ratio)" reportedvalue=0.0886
mutationdescriptor="G36U G110U G120A" resulttype="polymerase ribozyme fitness (log ratio)" reportedvalue=-2.35
mutationdescriptor="C85U C114G" resulttype="polymerase ribozyme fitness (log ratio)" reportedvalue=-3.53
mutationdescriptor="A43U G69C" resulttype="polymerase ribozyme fitness (log ratio)" reportedvalue=-2.32
mutationdescriptor="C11A C49A G69A G113A G128C" resulttype="polymerase ribozyme fitness (log ratio)" reportedvalue=-6.11
mutationdescriptor="A2G G69A C89G G110U" resulttype="polymerase ribozyme fitness (log ratio)" reportedvalue=-6
mutationdescriptor="C34A U78C C88U" resulttype="polymerase ribozyme fitness (log ratio)" reportedvalue=-1.84
mutationdescriptor="A5C A24G U87C" resulttype="polymerase ribozyme fitness (log ratio)" reportedvalue=-3.15
mutationdescriptor="U55G C79A C82U" resulttype="polymerase ribozyme fitness (log ratio)" reportedvalue=-1.09
mutationdescriptor="U109G C115A" resulttype="polymerase ribozyme fitness (log ratio)" reportedvalue=-7.19
mutationdescriptor="C40A U87G" resulttype="polymerase ribozyme fitness (log ratio)" reportedvalue=-1.04
mutationdescriptor="U38G G47U" resulttype="polymerase ribozyme fitness (log ratio)" reportedvalue=-3.26
mutationdescriptor="A41C G113C C124U" resulttype="polymerase ribozyme fitness (log ratio)" reportedvalue=-3.22
mutationdescriptor="C8U C88A A90U" resulttype="polymerase ribozyme fitness (log ratio)" reportedvalue=-0.855
mutationdescriptor="C28A U54A G71U G110U" resulttype="polymerase ribozyme fitness (log ratio)" reportedvalue=1.85
mutationdescriptor="U54C G61C C73A G93U" resulttype="polymerase ribozyme fitness (log ratio)" reportedvalue=-2.61
mutationdescriptor="C11U C86A C104U" resulttype="polymerase ribozyme fitness (log ratio)" reportedvalue=-1.37
mutationdescriptor="G63U G122A" resulttype="polymerase ribozyme fitness (log ratio)" reportedvalue=-2.28
mutationdescriptor="C31G C124G" resulttype="polymerase ribozyme fitness (log ratio)" reportedvalue=-6.98
mutationdescriptor=U21C resulttype="polymerase ribozyme fitness (log ratio)" reportedvalue=-0.0619
mutationdescriptor="A43U U106A A118U" resulttype="polymerase ribozyme fitness (log ratio)" reportedvalue=-1.2
mutationdescriptor="C62U G113C C124A U133A" resulttype="polymerase ribozyme fitness (log ratio)" reportedvalue=-2.07
mutationdescriptor="C49U C72U C94G" resulttype="polymerase ribozyme fitness (log ratio)" reportedvalue=-1.72
mutationdescriptor="C94A C102U" resulttype="polymerase ribozyme fitness (log ratio)" reportedvalue=-4.66
mutationdescriptor="C72A C86U" resulttype="polymerase ribozyme fitness (log ratio)" reportedvalue=-0.17
mutationdescriptor="C53U G63A" resulttype="polymerase ribozyme fitness (log ratio)" reportedvalue=-1.18
mutationdescriptor="C11A C13U A41U" resulttype="polymerase ribozyme fitness (log ratio)" reportedvalue=-2.84
mutationdescriptor="A2G G52C G60U" resulttype="polymerase ribozyme fitness (log ratio)" reportedvalue=0.0795
mutationdescriptor="C34A C97G" resulttype="polymerase ribozyme fitness (log ratio)" reportedvalue=-4.18
mutationdescriptor="G42C G63U C123U U133A" resulttype="polymerase ribozyme fitness (log ratio)" reportedvalue=-1.98
mutationdescriptor="C34A C72G G107U U109G A121G" resulttype="polymerase ribozyme fitness (log ratio)" reportedvalue=-5.86
mutationdescriptor="A16C C56U A84C C85U A100C" resulttype="polymerase ribozyme fitness (log ratio)" reportedvalue=-4.89
mutationdescriptor="C56U G135C" resulttype="polymerase ribozyme fitness (log ratio)" reportedvalue=0.59
mutationdescriptor="G44C C86U U96G U129C" resulttype="polymerase ribozyme fitness (log ratio)" reportedvalue=-2.63
mutationdescriptor="C8U U32A G60C C97A C99A G122U" resulttype="polymerase ribozyme fitness (log ratio)" reportedvalue=-5.09
mutationdescriptor="A2C C11U C70G G120A" resulttype="polymerase ribozyme fitness (log ratio)" reportedvalue=-3.19
mutationdescriptor="C53A C79A" resulttype="polymerase ribozyme fitness (log ratio)" reportedvalue=-3.06
mutationdescriptor="A18C G44U" resulttype="polymerase ribozyme fitness (log ratio)" reportedvalue=-3.35
mutationdescriptor="A5C G39C C70U G113A G120A C123A" resulttype="polymerase ribozyme fitness (log ratio)" reportedvalue=-2.68
mutationdescriptor="G45U A66C G93C U96C C115A" resulttype="polymerase ribozyme fitness (log ratio)" reportedvalue=-4.28
mutationdescriptor="A50G G51A" resulttype="polymerase ribozyme fitness (log ratio)" reportedvalue=-1.11
mutationdescriptor="G48C G60U C86A C94U U106C G117C" resulttype="polymerase ribozyme fitness (log ratio)" reportedvalue=-6.53
mutationdescriptor="C49U G63A U67C C85U G93U G110C C124A" resulttype="polymerase ribozyme fitness (log ratio)" reportedvalue=-8.14
mutationdescriptor="C13A G69U A74U U87A A100C U109A" resulttype="polymerase ribozyme fitness (log ratio)" reportedvalue=-5.82
mutationdescriptor="C12U G52A G117C" resulttype="polymerase ribozyme fitness (log ratio)" reportedvalue=-0.882
mutationdescriptor="A91C U112A C123A G128C" resulttype="polymerase ribozyme fitness (log ratio)" reportedvalue=-3.53
mutationdescriptor="C4A C72U U130A" resulttype="polymerase ribozyme fitness (log ratio)" reportedvalue=-2.53
mutationdescriptor="G45A A46C G58U G61U C85A" resulttype="polymerase ribozyme fitness (log ratio)" reportedvalue=-4.13
mutationdescriptor="G61C C102U" resulttype="polymerase ribozyme fitness (log ratio)" reportedvalue=-3.06
mutationdescriptor="C40G G113A G122C" resulttype="polymerase ribozyme fitness (log ratio)" reportedvalue=-1.81
mutationdescriptor="G10A G42A A43U" resulttype="polymerase ribozyme fitness (log ratio)" reportedvalue=-1.82
mutationdescriptor="A27U G122A" resulttype="polymerase ribozyme fitness (log ratio)" reportedvalue=-4.26
mutationdescriptor="G10C G19C A43G C72U U112C C123A" resulttype="polymerase ribozyme fitness (log ratio)" reportedvalue=-1.54
mutationdescriptor="C49G G61C" resulttype="polymerase ribozyme fitness (log ratio)" reportedvalue=-2.12
mutationdescriptor="C28A C86U A111U" resulttype="polymerase ribozyme fitness (log ratio)" reportedvalue=-2.22
mutationdescriptor="C4U G42A G45U G47A" resulttype="polymerase ribozyme fitness (log ratio)" reportedvalue=-4.19
mutationdescriptor="C40G C53A C70U C115G U125A" resulttype="polymerase ribozyme fitness (log ratio)" reportedvalue=-3.58
mutationdescriptor="A119G G120A" resulttype="polymerase ribozyme fitness (log ratio)" reportedvalue=1.35
mutationdescriptor="C11A C12A C28U C31G G52A G63C G113C U116A" resulttype="polymerase ribozyme fitness (log ratio)" reportedvalue=-5.83
mutationdescriptor="C15U A74U A83C A100U U116A" resulttype="polymerase ribozyme fitness (log ratio)" reportedvalue=-5.53
mutationdescriptor="G60U C62G U92C" resulttype="polymerase ribozyme fitness (log ratio)" reportedvalue=-2.78
mutationdescriptor="G44C G60U" resulttype="polymerase ribozyme fitness (log ratio)" reportedvalue=-0.287
mutationdescriptor="C13U G45A G71C" resulttype="polymerase ribozyme fitness (log ratio)" reportedvalue=-0.496
mutationdescriptor="A100U U116C" resulttype="polymerase ribozyme fitness (log ratio)" reportedvalue=-2.35
mutationdescriptor="C56U G107A" resulttype="polymerase ribozyme fitness (log ratio)" reportedvalue=-4.63
mutationdescriptor="U7A G60U U112A" resulttype="polymerase ribozyme fitness (log ratio)" reportedvalue=1.29
mutationdescriptor="A50C A75G A95C" resulttype="polymerase ribozyme fitness (log ratio)" reportedvalue=-0.114
mutationdescriptor="C85A C124A U126G" resulttype="polymerase ribozyme fitness (log ratio)" reportedvalue=-0.918
mutationdescriptor="A2U C11A G51A A66G G69U C98U" resulttype="polymerase ribozyme fitness (log ratio)" reportedvalue=-4.43
mutationdescriptor=A75C resulttype="polymerase ribozyme fitness (log ratio)" reportedvalue=-0.585
mutationdescriptor="C72G C73U C86G" resulttype="polymerase ribozyme fitness (log ratio)" reportedvalue=-5.02
mutationdescriptor="C49U U96C C124A" resulttype="polymerase ribozyme fitness (log ratio)" reportedvalue=1.03
mutationdescriptor="C56G G63A C101G G122U" resulttype="polymerase ribozyme fitness (log ratio)" reportedvalue=-5.14
mutationdescriptor="G45U C114U A121U" resulttype="polymerase ribozyme fitness (log ratio)" reportedvalue=-1.71
mutationdescriptor="C13G C20A C49U C64U U96G" resulttype="polymerase ribozyme fitness (log ratio)" reportedvalue=-4.56
mutationdescriptor="C4G A111U" resulttype="polymerase ribozyme fitness (log ratio)" reportedvalue=-3.42
mutationdescriptor="U78G C82G C99A U112G G128U" resulttype="polymerase ribozyme fitness (log ratio)" reportedvalue=-6.81
mutationdescriptor="C49A C94U U116A" resulttype="polymerase ribozyme fitness (log ratio)" reportedvalue=-3.07
mutationdescriptor="A18C C20U G36U C56G" resulttype="polymerase ribozyme fitness (log ratio)" reportedvalue=-3.57
mutationdescriptor="A121C G122U" resulttype="polymerase ribozyme fitness (log ratio)" reportedvalue=0.743
mutationdescriptor="A95U U106G G120U" resulttype="polymerase ribozyme fitness (log ratio)" reportedvalue=-2.83
mutationdescriptor="G42C U55A G63U C101U" resulttype="polymerase ribozyme fitness (log ratio)" reportedvalue=-3.41
mutationdescriptor="A5U C53U" resulttype="polymerase ribozyme fitness (log ratio)" reportedvalue=-0.883
mutationdescriptor="C53G C101G" resulttype="polymerase ribozyme fitness (log ratio)" reportedvalue=-1.65
